Experiment: Metabolic stability in mouse liver microsomes
Type: in vitro ADME
Details: mouse, pH 7.4; mice liver microsomes; read-out: Plasma Stability t1/2 (microsome panel)
Reported property: half-life at 1 μM

Need half-life at 1 μM, item O=C1CCC(N2C(=O)c3cccc(NCC(=O)N4CCC(N5CCC(C#Cc6ccc(C7CCN(C8=Nn9c(nnc9C(F)(F)F)CC8)CC7)cc6)CC5)CC4)c3C2=O)C(=O)N1 (stereo not shown) [ITRI-148]
> 1 h

###

Test: Toxicokinetic profiling in rats
Format: in vivo
Conditions: Sprague-Dawley, rat, plasma, po, 100 mg/kg, single dosing 100 mg/kg
Reported property: Cmax (ng/mL)
All answers are understood in ng/mL, so give the number only.

Entry under review: O=C1CCC(N2C(=O)c3cccc(NCC(=O)N4CCC(N5CCC(C#Cc6ccc(C7CCN(C8=Nn9c(nnc9C(F)(F)F)CC8)CC7)cc6)CC5)CC4)c3C2=O)C(=O)N1 (stereo not shown) [ITRI-148] . Reported Cmax?
466

###

Experiment: Pharmacokinetic analysis after oral dosing in mice
Format: in vivo, BALB/c mice
Settings: male, BALB/c, mouse, plasma, po, 10 mg/kg
Reported property: Tmax (h)
Entry rule: numbers only, all in h.

For O=C1CCC(N2C(=O)c3cccc(NCC(=O)N4CCC(N5CCC(C#Cc6ccc(C7CCN(C8=Nn9c(nnc9C(F)(F)F)CC8)CC7)cc6)CC5)CC4)c3C2=O)C(=O)N1 (stereo not shown) , what is its reported Tmax?
4

###

Experiment: Toxicokinetic profiling in rats
Assay type: in vivo
Conditions: Sprague-Dawley, rat, plasma, po, 600 mg/kg, 7-times repeated dosing 600 mg/kg
Reported property: Cmax
Write the numeric value and follow it with the unit.

Reported Cmax for O=C1CCC(N2C(=O)c3cccc(NCC(=O)N4CCC(N5CCC(C#Cc6ccc(C7CCN(C8=Nn9c(nnc9C(F)(F)F)CC8)CC7)cc6)CC5)CC4)c3C2=O)C(=O)N1 (stereo not shown) : what is it?
1440 ng/mL

###

Experiment: Pharmacokinetic analysis after oral dosing in mice
Assay type: in vivo, BALB/c mice
Conditions: male, BALB/c, mouse, plasma; PO, 10 mg/kg; between 0 and 24 h
Reported property: AUC(0-t)

Fill in: AUC(0-t) of O=C1CCC(N2C(=O)c3cccc(NCC(=O)N4CCC(N5CCC(C#Cc6ccc(C7CCN(C8=Nn9c(nnc9C(F)(F)F)CC8)CC7)cc6)CC5)CC4)c3C2=O)C(=O)N1 (stereo not shown) is ___
9900 ng·h/mL

###

Experiment: Toxicokinetic profiling in rats
Type: in vivo
Settings: Sprague-Dawley, rat, plasma, po, 100 mg/kg, 7-times repeated dosing 100 mg/kg, read-out: AUC24
Reported property: AUC (ng·h/mL)
Note: unit ng·h/mL is implicit; provide only the numeric part.

AUC for O=C1CCC(N2C(=O)c3cccc(NCC(=O)N4CCC(N5CCC(C#Cc6ccc(C7CCN(C8=Nn9c(nnc9C(F)(F)F)CC8)CC7)cc6)CC5)CC4)c3C2=O)C(=O)N1 (stereo not shown) ?
8330

###

Test: Toxicokinetic profiling in rats
Assay type: in vivo
Details: Sprague-Dawley, rat, plasma, po, 1000 mg/kg, single dosing 1000 mg/kg
Reported property: Cmax (ng/mL)
Just the number please, in ng/mL, no unit attached.

Item O=C1CCC(N2C(=O)c3cccc(NCC(=O)N4CCC(N5CCC(C#Cc6ccc(C7CCN(C8=Nn9c(nnc9C(F)(F)F)CC8)CC7)cc6)CC5)CC4)c3C2=O)C(=O)N1 (stereo not shown) [ITRI-148] has what recorded Cmax?
1000

###

Test: Toxicokinetic profiling in rats
Type: in vivo
Conditions: Sprague-Dawley, rat, plasma, po, 600 mg/kg, 7-times repeated dosing 600 mg/kg
Reported property: AUC(0-t)
Quick note: unit goes after the number.

State the recorded AUC(0-t) for this entry: O=C1CCC(N2C(=O)c3cccc(NCC(=O)N4CCC(N5CCC(C#Cc6ccc(C7CCN(C8=Nn9c(nnc9C(F)(F)F)CC8)CC7)cc6)CC5)CC4)c3C2=O)C(=O)N1 (stereo not shown) [ITRI-148]
35200 ng·h/mL

###

Experiment: Metabolic stability in liver microsomes
Format: in vitro ADME
Details: pH 7.4; dog liver microsomes; read-out: Plasma Stability t1/2 (microsome panel)
Reported property: half-life at 1 μM

# input compound: O=C1CCC(N2C(=O)c3cccc(NCC(=O)N4CCC(N5CCC(C#Cc6ccc(C7CCN(C8=Nn9c(nnc9C(F)(F)F)CC8)CC7)cc6)CC5)CC4)c3C2=O)C(=O)N1 (stereo not shown) ; wanted: its half-life at 1 μM
> 1 h

###

Experiment: Toxicokinetic profiling in rats
Type: in vivo
Settings: Sprague-Dawley, rat, plasma, po, 100 mg/kg, 7-times repeated dosing 100 mg/kg
Procedure: Repeated-dose toxicity and toxicokinetic studies Repeated-dose oral toxicity study and toxicokinetic (TK) profiling was conducted in Sprague-Dawley rats. […] Clinical observations, body weights, and food consumption were monitored daily throughout the dosing and recovery periods. […] Plasma concentrations of ITRI-148 were quantified using a validated LC-MS/MS method. […] The lower limit of quantification (LLOQ) […] was 5 ng/mL. All samples were analyzed in duplicate. […]
Reported property: AUC(0-t) (ng·h/mL)
Reply with just the number (in ng·h/mL).

Can you share its AUC(0-t)? I mean this compound: O=C1CCC(N2C(=O)c3cccc(NCC(=O)N4CCC(N5CCC(C#Cc6ccc(C7CCN(C8=Nn9c(nnc9C(F)(F)F)CC8)CC7)cc6)CC5)CC4)c3C2=O)C(=O)N1 (stereo not shown) [ITRI-148]
8750

###

Tested on: C4-2B/MDVR
Assay: MTT cell viability, 7 days
Type: cell-based
Details: 168 h
Reported property: IC50 (µM)
Respond with the bare value in µM.

What value of IC50 has been recorded for this entry: O=C1CCC(N2C(=O)c3cccc(NCC(=O)N4CCC(N5CCC(C#Cc6ccc(C7CCN(C8=Nn9c(nnc9C(F)(F)F)CC8)CC7)cc6)CC5)CC4)c3C2=O)C(=O)N1 (stereo not shown)
1.6

###

Test: Toxicokinetic profiling in rats
Type: in vivo
Conditions: Sprague-Dawley, rat, plasma, po, 100 mg/kg, single dosing 100 mg/kg, read-out: AUC24
Method: Repeated-dose toxicity and toxicokinetic studies Repeated-dose oral toxicity study and toxicokinetic (TK) profiling was conducted in Sprague-Dawley rats. […] Clinical observations, body weights, and food consumption were monitored daily throughout the dosing and recovery periods. […] Plasma concentrations of ITRI-148 were quantified using a validated LC-MS/MS method. […] The lower limit of quantification (LLOQ) […] was 5 ng/mL. All samples were analyzed in duplicate. […]
Reported property: AUC (ng·h/mL)
Report the figure in ng·h/mL without appending any unit label.

What value of measured AUC is listed for O=C1CCC(N2C(=O)c3cccc(NCC(=O)N4CCC(N5CCC(C#Cc6ccc(C7CCN(C8=Nn9c(nnc9C(F)(F)F)CC8)CC7)cc6)CC5)CC4)c3C2=O)C(=O)N1 (stereo not shown) ?
7670

###

Test: Toxicokinetic profiling in rats
Type: in vivo
Settings: Sprague-Dawley, rat, plasma, po, 600 mg/kg, single dosing 600 mg/kg, read-out: AUC24
Experimental: Repeated-dose toxicity and toxicokinetic studies Repeated-dose oral toxicity study and toxicokinetic (TK) profiling was conducted in Sprague-Dawley rats. […] Clinical observations, body weights, and food consumption were monitored daily throughout the dosing and recovery periods. […] Plasma concentrations of ITRI-148 were quantified using a validated LC-MS/MS method. […] The lower limit of quantification (LLOQ) […] was 5 ng/mL. All samples were analyzed in duplicate. […]
Reported property: AUC (ng·h/mL)
Value expressed in ng·h/mL; do not type the unit.

Data request, read-out AUC, for O=C1CCC(N2C(=O)c3cccc(NCC(=O)N4CCC(N5CCC(C#Cc6ccc(C7CCN(C8=Nn9c(nnc9C(F)(F)F)CC8)CC7)cc6)CC5)CC4)c3C2=O)C(=O)N1 (stereo not shown) [ITRI-148]
15100

###

Test: In vitro stability in plasma
Assay type: in vitro ADME
Settings: dog plasma; read-out: Plasma Stability t1/2
Reported property: half-life at 1 μM

// query half-life at 1 μM value for entry O=C1CCC(N2C(=O)c3cccc(NCC(=O)N4CCC(N5CCC(C#Cc6ccc(C7CCN(C8=Nn9c(nnc9C(F)(F)F)CC8)CC7)cc6)CC5)CC4)c3C2=O)C(=O)N1 (stereo not shown)
> 4 h

###

Test: Toxicokinetic profiling in rats
Type: in vivo
Settings: Sprague-Dawley, rat, plasma, po, 1000 mg/kg, 7-times repeated dosing 1000 mg/kg, read-out: AUC24
Method: Repeated-dose toxicity and toxicokinetic studies Repeated-dose oral toxicity study and toxicokinetic (TK) profiling was conducted in Sprague-Dawley rats. […] Clinical observations, body weights, and food consumption were monitored daily throughout the dosing and recovery periods. […] Plasma concentrations of ITRI-148 were quantified using a validated LC-MS/MS method. […] The lower limit of quantification (LLOQ) […] was 5 ng/mL. All samples were analyzed in duplicate. […]
Reported property: AUC (ng·h/mL)
Provide only the numeric value, understood in ng·h/mL.

Param item = O=C1CCC(N2C(=O)c3cccc(NCC(=O)N4CCC(N5CCC(C#Cc6ccc(C7CCN(C8=Nn9c(nnc9C(F)(F)F)CC8)CC7)cc6)CC5)CC4)c3C2=O)C(=O)N1 (stereo not shown) ; retrieve measured AUC.
36600
